The measured values listed here are drawn from patent US12497428B2.

Assay: Aqueous solubility
Assay type: physicochemical
READOUT: solubility

O=C(O)CO[C@@H]1[C@@H](n2cc(-c3cc(F)c(F)c(F)c3)nn2)[C@@H](O)[C@@H](CO)O[C@@H]1Sc1cncc(Br)c1 : 1800 µg/mL
O=P(O)(O)OCO[C@@H]1[C@@H](n2cc(-c3cc(F)c(F)c(F)c3)nn2)[C@@H](O)[C@@H](CO)O[C@@H]1Sc1cncc(Br)c1 : > 10000 µg/mL
O=C(O)CO[C@@H]1[C@@H](n2cc(-c3cc(F)c(Cl)c(F)c3)nn2)[C@@H](O)[C@@H](CO)O[C@@H]1Sc1ccc(Cl)c(Cl)c1 : 2000 µg/mL
CS(=O)(=O)NC(=O)COC1C(n2cc(-c3cc(F)c(Cl)c(F)c3)nn2)[C@@H](O)C(CO)O[C@@H]1Sc1ccc(Cl)c(Cl)c1 (stereo in doubt) : 2900 µg/mL
